Values compiled from patent US20150274826A1.

The following binders are shown together with reported mean fluorescence relative to chimeric antibody values.
Assayed System: T1, rat CD47 (rat, UniProt P97829 19-303)
T1 construct: whole, on cells; also called CD47 on rat RBCs
T1 sequence (looked up): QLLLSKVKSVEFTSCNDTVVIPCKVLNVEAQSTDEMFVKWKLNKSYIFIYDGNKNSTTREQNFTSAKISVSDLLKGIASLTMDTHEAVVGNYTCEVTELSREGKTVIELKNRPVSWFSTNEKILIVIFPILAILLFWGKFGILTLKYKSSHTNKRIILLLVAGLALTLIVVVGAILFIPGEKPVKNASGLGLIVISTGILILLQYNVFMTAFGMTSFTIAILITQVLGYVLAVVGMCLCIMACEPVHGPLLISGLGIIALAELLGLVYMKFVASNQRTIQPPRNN
Assay Method Text: flow cytometry on RBCs, CHO supernatant 10 ng/ml
Entry rule: numbers only, all in ratio.

Read off the recorded mean fluorescence relative to chimeric antibody for Clone 21 (pVxK7b-037-hum21-LC / pVxK7b-037-hum21-HC) (antibody, human IgG1, kappa, V domains shown) VH: QVQLQESGPGLVKPSQTLSLTCTVSGYTFTNYYVFWVRQARGQRLEWIGDINPVNGDTNFNEKFKNRLTISKDTSKNQVVLTMTNMDPVDTATYYCARGGYTMDYWGQGTLVTVSS VL: AIQLTQSPSSLSASVGDRVTITCRSSQSLVHSNGNTYLHWYQQKPGQAPRLLIYKVSYRFSGVPDRFSGSGSGTDFTLKISRVEAEDVGVYYCSQNTHVPRTFGQGTKVEIKR
2.8

Read off the recorded mean fluorescence relative to chimeric antibody for Clone 7 (pVxK7b-037-hum07-LC / pVxK7b-037-hum07-HC) (antibody, human IgG1, kappa, V domains shown) VH: QVQLQESGPGLVKPGATVKISCKVSGYTFTNYYVFWVRQARGQRLEWIGDINPVNGDTNFNEKFKNRVTITADKSTSTAYMELSSLRSEDTAVYYCARGGYTMDYWGQGTLVTVSS VL: DIVMTQTPLSLPVTPGEPASISCRSSQSLVHSNGNTYLHWYLQKPGQSPQLLIYKVSYRFSGVPDRFSGSGSGTDFTLKISRVEAEDVGVYYCSQNTHVPRTFGQGTKVEIKR
0.8

Read off the recorded mean fluorescence relative to chimeric antibody for Clone 4 (pVxK7b-037-hum04-LC / pVxK7b-037-hum04-HC) (antibody, human IgG1, kappa, V domains shown) VH: QVQLQESGPGLVKPSQTLSLTCTVSGYTFTNYYVFWVRQAPGKGLEWVSDINPVNGDTNFNEKFKNRVTISVDTSKNQFSLKLSSVTAADTAVYYCARGGYTMDYWGQGTLVTVSS VL: DIQMTQSPSSLSASVGDRVTITCRSSQSLVHSNGNTYLHWYLQKPGQSPQLLIYKVSYRFSGIPARFSGSGSGTEFTLTISSLQSEDFAVYYCSQNTHVPRTFGQGTKVEIKR
1
